assay: Cell Viability - LYMP2-011 (AID 969); conditions: LYMP2-011 lymphoblastoid cells viability; series mostly up to 92.2 µM;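 note: cells exposed to compound for 24 hours; nearly all actives have a fitted effect of over 60% in size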
Results filed as inconclusive are left out. The source made the active and inactive calls. Calls come from the whole dose curve; as a rule, active = well fitted cell-killing curve with a large enough effect; inconclusive = small, poorly fitted or top-dose-only effect; inactive = flat fitted curve, though single readings scatter.
Please state which outcome applies, choosing from 1.0 (active), 0.0 (inactive)

Before answering, review these 5 worked examples.
Clc1ccccc1Cl | 0.0
CC(C)Nc1ccc(Nc2ccccc2)cc1 | 1.0
C[C@H]1CCC[C@H](O)CCCCCc2cc(O)cc(O)c2C(=O)O1 | 0.0
C[C@]12CCC(=O)C[C@@H]1CC[C@@H]1[C@@H]2CC[C@]2(C)[C@@H](O)CC[C@@H]12 | 0.0
C[C@H]1CC[C@@H]2[C@@H](C)[C@H]3[C@H](C[C@H]4[C@@H]5CC=C6CC(O[C@@H]7O[C@H](CO)[C@H](O)[C@H](O[C@@H]8O[C@H](CO)[C@@H](O)[C@H](O)[C@H]8O)[C@H]7O[C@H]7O[C@@H](C)[C@H](O)[C@@H](O)[C@H]7O)CC[C@]6(C)[C@H]5CC[C@]34C)N2C1 (stereo not given in full) | 1.0

Hello, I am checking results. What call was entered for [Cl-].[Cl-].[Hg+2] ?
1.0

Hi, sorry to bother you, what did the test record for S=C=S ?
0.0

Per the records of this test, what outcome belongs to COC1=CC(=O)O[C@@H](/C=C/c2ccccc2)C1 ?
0.0

Check the results log: what was the call for Oc1cc(Cl)c(Cl)cc1Cl ?
0.0

Tell me the assay call for ClC(Cl)(Cl)Cl please.
0.0

Field: outcome | Entry: ClCC1CO1 (stereo not given)
0.0

Short answer needed: outcome of this test for C=CCN=C=S ?
0.0

Give the logged outcome of this assay for the following compound: NNC(N)=O
0.0

Would you mind telling me which call this test gave ClC=C(Cl)Cl ?
0.0

What classification did O=Cc1ccco1 end up with in this test?
0.0
